Reference source: patent US4296233A

test: Solubility in a mixed solvent of 98 vol.% of water and 2 vol.% of ethanol (method of Example 1); type: physicochemical; settings: water/ethanol 98:2, organic solvent or mixture; same mixed solvent; measured by absorbance at 235 mμ; read-out: Solubility of dehydroepiandrosterone
Outcome Measure: solubility

>>> reported_measurement("C[C@]12CC[C@H](O)CC1=CC[C@@H]1[C@@H]2CC[C@]2(C)C(=O)CC[C@@H]12 [dehydroepiandrosterone, 3β-hydroxy-5-androsten-17-one, reference compound]")
"2.4 µM"

* * *

test: Solubility in a mixed solvent of 98 vol.% of water and 2 vol.% of ethanol (method of Example 1); type: physicochemical; details: water/ethanol 98:2, organic solvent or mixture; mixed solvent of 98 vol.% of water and 2 vol.% of ethanol; read-out: Solubility
Listed here: items and their measured solubility.
Outcome Measure: solubility (µM)

>>> reported_measurement("C[C@]12CC[C@@H]3c4ccc(O)cc4CC[C@H]3[C@@H]1CC[C@@H]2OC(=O)COC(=O)[C@H]1O[C@@H](O[C@H]2[C@@H](O)[C@@H](CO)OC(O)[C@@H]2N)[C@H](O)[C@@H](O)[C@@H]1O (some centres unmarked)")
65
>>> reported_measurement("C[C@]12CCC(OC(=O)[C@H]3OC(O)[C@H](N)[C@@H](O)[C@@H]3O)CC1=CC[C@@H]1[C@@H]2CC[C@]2(C)C(=O)CC[C@@H]12 (mixture of isomers)")
40.2
